Item-by-item account of pKi
Target: Mcl-1 (Homo sapiens (Human), UniProt Q07820)
Sequence (Q07820 172-327): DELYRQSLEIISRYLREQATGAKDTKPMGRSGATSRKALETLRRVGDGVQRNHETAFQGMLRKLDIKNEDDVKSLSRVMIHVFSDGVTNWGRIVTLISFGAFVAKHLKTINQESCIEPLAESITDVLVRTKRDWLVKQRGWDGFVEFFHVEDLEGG
Assay: TR-FRET binding assay, FITC-Bak peptide and MBP-tagged Mcl-1
Details: read-out: Ki for Inhibition of Mcl-1 by TR-FRET assay
pKi: −log10 of the molar value.
property: pKi

>  <compound>
Cc1ccnc(-n2cnc(-c3ccc4c(c3)c(N3C[C@@H](C)n5c(c(CCCOc6cc(C)c(Cl)c(C)c6)c6ccc(Cl)c(-c7c(C)nn(C)c7C)c65)C3=O)cn4C)n2)n1

>  <result>
> 9.70

$$$$
>  <compound>
Cc1cc(OCCCc2c3n(c4c(-c5c(C)nn(C)c5C)c(Cl)ccc24)[C@H](C)CN(c2cn(CCN4CCCC4)c4ccc(C(=O)O)cc24)C3=O)cc(C)c1Cl

>  <result>
> 9.70

$$$$
>  <compound>
COCCn1c(C(=O)O)cc2cc(C)cc(N3C[C@@H](C)n4c(c(CCCOc5cc(C)c(Cl)c(C)c5)c5ccc(Cl)c(-c6c(C)nn(C)c6C)c54)C3=O)c21 [Example 709]

>  <result>
> 9.70

$$$$
>  <compound>
Cc1cc(OCCCc2c3n(c4c(-c5c(C)nn(C)c5C)c(Cl)ccc24)[C@H](C)CN(c2cn(C)c4ccc(-c5nn[nH]n5)nc24)C3=O)cc(C)c1Cl

>  <result>
> 9.70

$$$$
>  <compound>
Cc1cc(OCCCc2c3n(c4c(-c5c(C)nn(C)c5C)c(Cl)ccc24)[C@H](C)CN(c2cc(N(C)C(=O)CN4CCCC4)cc4c(C(=O)O)cn(C)c24)C3=O)cc(C)c1Cl

>  <result>
8.72

$$$$

* * *

Molecular target: Mcl-1 (Homo sapiens (Human), UniProt Q07820)
Experiment: TR-FRET binding assay, FITC-Bak peptide and MBP-tagged Mcl-1
Settings: read-out: Ki for Inhibition of Mcl-1 by TR-FRET assay
pKi: −log10 of the molar value.
property: pKi

>  <smiles>
COCCOc1cc(N2C[C@@H](C)n3c(c(CCCOc4cc(C)c(Cl)c(C)c4)c4ccc(Cl)c(-c5c(C)nn(C)c5C)c43)C2=O)c2c(c1)cc(C(=O)O)n2Cc1cccc(C)n1

>  <assay-target>
Mcl-1 (Homo sapiens (Human), UniProt Q07820)

>  <property>
pKi

>  <result>
> 9.70

$$$$
>  <smiles>
COCCOc1cc(N2C[C@@H](C)n3c(c(CCCOc4cc(C)c(Cl)c(C)c4)c4ccc(Cl)c(-c5c(C)nn(C)c5C)c43)C2=O)c2c(c1)cc(C(=O)O)n2Cc1ccccn1

>  <assay-target>
Mcl-1 (Homo sapiens (Human), UniProt Q07820)

>  <property>
pKi

>  <result>
> 9.70

$$$$
>  <smiles>
Cc1cc(OCCCc2c3n(c4c(-c5c(C)cc(OCc6ccccn6)cc5C)c(Cl)ccc24)[C@H](C)CN(c2cn(C)c4ccc(C(=O)O)cc24)C3=O)cc(C)c1Cl

>  <assay-target>
Mcl-1 (Homo sapiens (Human), UniProt Q07820)

>  <property>
pKi

>  <result>
8.89

$$$$

* * *

Item-by-item account of GI50
System: H929 human cancer cell lines
Test: Cellular viability / proliferation (Cell TiterGlo, 72 h)
Format: cell-based
Conditions: Homo sapiens, NCI-H929, 72 h, read-out: GI50 on cellular proliferation of H929 human cancer cell lines, H929 cells, 72 h, Cell TiterGlo, 10% FBS
property: GI50 (nM)

>  <smiles>
COCCOc1cc(N2C[C@@H](C)n3c(c(CCCOc4cc(C)c(Cl)c(C)c4)c4ccc(Cl)c(-c5c(C)nn(C)c5C)c43)C2=O)c2c(c1)c(C(=O)O)cn2CCOC

>  <assay-target>
H929 human cancer cell lines

>  <number>
250

$$$$
>  <smiles>
Cc1cc(N2C[C@@H](C)n3c(c(CCCOc4cc(C)c(Cl)c(C)c4)c4ccc(Cl)c(-c5c(C)nn(C)c5C)c43)C2=O)c2c(c1)cc(C(=O)O)n2Cc1cc(C#N)ccn1

>  <assay-target>
H929 human cancer cell lines

>  <number>
280

$$$$
>  <smiles>
Cc1cc(OCCCc2c3n(c4c(-c5c(C)nn(CCN(C)C)c5C)c(Cl)ccc24)[C@H](C)CN(c2cn(C)c4cc(C(=O)O)ccc24)C3=O)cc(C)c1Cl

>  <assay-target>
H929 human cancer cell lines

>  <number>
530

$$$$
>  <smiles>
Cc1cc(OCCCc2c3n(c4c(-c5c(C)nn(C)c5C)c(Cl)ccc24)[C@H](C)CN(c2ccc4c(C(=O)O)cccc4n2)C3=O)cc(C)c1Cl

>  <assay-target>
H929 human cancer cell lines

>  <number>
6400

$$$$
>  <smiles>
Cc1cc(OCCCc2c3n(c4c(-c5c(C)nn(C)c5C)c(Cl)ccc24)[C@H](C)CN(c2cn(C)c4c(C)cc(C(=O)O)cc24)C3=O)cc(C)c1Cl

>  <assay-target>
H929 human cancer cell lines

>  <number>
360

$$$$
>  <smiles>
Cc1cc(OCCCc2c3n(c4c(-c5c(C)nn(C)c5C)c(Cl)ccc24)CCCN(c2cc(C(=O)O)c4cn(CCN5CCOCC5)nc4c2)C3=O)cc(C)c1Cl

>  <assay-target>
H929 human cancer cell lines

>  <number>
8300

$$$$
>  <smiles>
COCCn1cc(N2C[C@@H](C)n3c(c(CCCOc4cc(C)c(Cl)c(C)c4)c4ccc(Cl)c(-c5c(C)nn(C)c5C)c43)C2=O)c2cc(-c3ncn(C)n3)ccc21

>  <assay-target>
H929 human cancer cell lines

>  <number>
220

$$$$
>  <smiles>
Cc1cc(OCCCc2c3n(c4c(-c5c(C)nn(C)c5C)c(Cl)ccc24)[C@H](C)CN(c2cccc4c(C)c(C(=O)O)n(C)c24)C3=O)cc(C)c1Cl

>  <assay-target>
H929 human cancer cell lines

>  <number>
470

$$$$
>  <smiles>
Cc1cc(OCCCc2c3n(c4c(-c5c(C)nn(C)c5C)c(Cl)ccc24)[C@H](C)CN(c2cc(CN4CCCC4)cc4cc(C(=O)O)n(C)c24)C3=O)cc(C)c1Cl

>  <assay-target>
H929 human cancer cell lines

>  <number>
280

$$$$
>  <smiles>
Cc1cc(OCCCc2c3n(c4c(-c5c(C)nn(C)c5C)c(Cl)ccc24)CCCN(c2cc(C(=O)O)c4nnn(C)c4c2)C3=O)cc(C)c1Cl

>  <assay-target>
H929 human cancer cell lines

>  <number>
8700

$$$$
>  <smiles>
Cc1cc(OCCCc2c3n(c4c(-c5c(C)nn(C)c5C)c(Cl)ccc24)[C@H](C)CN(c2cc4cc(C(=O)O)ccc4n2C)C3=O)cc(C)c1Cl

>  <assay-target>
H929 human cancer cell lines

>  <number>
6300

$$$$
